- Test system: OVCAR-3 ovarian
- run_description: NCI-60 one-dose screen, 48 h (100 = growth as untreated, 0 = no growth, -100 = all killed)
- experimental_context: 10 µM unless noted
Compounds without any hit were thinned out: in the full panel of roughly 83,000, 20% have a hit. Calls of active or inactive are those of the source. The calls were made as follows: active = growth percent below 10; inactive = the rest.

compound | tested_on | growth
Cc1c2c(cn1Cc1ccccc1)CCc1cn(C)nc1-2 | OVCAR-3 ovarian | 107% (inactive)
O=C(/C=C/C12c3ccccc3C(c3ccccc31)C1C(=O)N(c3ccc(Cl)cc3)C(=O)C12)c1ccccn1 (stereo not given) | OVCAR-3 ovarian | -71.6% (active)
COc1ccc(-n2sc(=O)n(Cc3ccc(COC(=O)C(C)c4ccc(CC(C)C)cc4)cc3)c2=O)cc1 (stereo not given) | OVCAR-3 ovarian | -67.3% (active)
O=C1c2ccccc2C(=O)c2cc(Cn3cc[n+](Cc4ccc5ccccc5c4)c3)ccc21 | OVCAR-3 ovarian | 40.8% (inactive)
CS(=O)(=O)c1ccc(-c2[nH]c3ccc(F)cc3c2/C=N/O)cc1 | OVCAR-3 ovarian | 99.8% (inactive)

* * *

Reported values of growth for individual entries
- System: ACHN renal
- run_description: NCI-60 one-dose screen, 48 h (100 = growth as untreated, 0 = no growth, -100 = all killed)
- experimental_context: 10 µM unless noted
The panel holds about 83,000 compounds, 20% with a hit somewhere; the sample as a whole holds those more often. Calls of active or inactive are those of the source. How the source made its calls: active means growth percent below 10; inactive means the rest.
readout_name: growth

chemical_smiles | result
CCOC(=O)Cc1csc2nc(-c3ccccc3)nn12 | 99.7% (inactive)
Cc1nc(-c2ccccc2)cc2c(O)c(C(=O)N/N=C/c3ccc(N(C)C)cc3)[nH]c(=O)c12 | 67.5% (inactive)
CN(C)CN1CCN(c2ccc3nc(-c4ccc5nc(-c6ccc(C(F)(F)F)cc6)[nH]c5c4)[nH]c3c2)CC1 | 79.3% (inactive)
COC(=O)[C@]12CC[C@@H](C)[C@H](C)[C@@H]1C1=CC[C@@H]3[C@@]4(C)C(C=O)=C[C@@](C)(CO)C4=CC[C@@]3(C)[C@]1(C)CC2 | 17.1% (inactive)
C#CC[C@H](N)C(=O)O | 107% [20 µM] (inactive)

* * *

- System: IGROV1 ovarian
- run_description: NCI-60 one-dose screen, 48 h (100 = growth as untreated, 0 = no growth, -100 = all killed)
- experimental_context: 10 µM unless noted
Compounds without any hit were thinned out: in the full panel of roughly 83,000, 20% have a hit. Activity calls are given as the source filed them. Rule for the calls: active = growth percent below 10; inactive = the rest.

compound | growth
CCCn1nc(-c2ccccc2)c2c(-c3ccccc3)onc2c1=O | 72.5% (inactive)
[2H]c1nc(Nc2ncc(F)c(-c3cc(F)c4nc(C)n(C(C)C)c4c3)n2)c([2H])c([2H])c1CN1CCN(C([2H])([2H])C([2H])([2H])[2H])CC1 | 47.3% (inactive)
CCCCCCCCCCCCCCCCCC1=NCCN1C(=O)OCCO | -35.3% (active)
Cc1cc(-c2ccccc2)cc(SC#N)[n+]1[O-] | 35.3% (inactive)
COc1cc2c(c(OC)c1OC)C(=O)/C(=C/c1cc(C)c(O)c(C)c1)S2 | 45.7% (inactive)
Clc1ccc(-c2cn(-c3ccccc3)c(-c3ccccc3)n2)cc1 | 48% (inactive)
N#C/C(=C\c1ccc(Br)cc1)n1nnc2cc(Cl)c(Cl)cc21 | 23.3% (inactive)
O=C1C(Cl)C(c2ccccc2Cl)N1n1cnnc1 (stereo not given) | 91.5% (inactive)
CN(C)c1cnccn1 | 91.1% (inactive)
Nc1nc(N)c(-c2ccc(Cl)cc2)c(/C=C/c2ccc([N+](=O)[O-])cc2)n1 | 22.4% (inactive)

* * *

- System: HOP-62 NSCLC
- run_description: NCI-60 one-dose screen, 48 h (100 = growth as untreated, 0 = no growth, -100 = all killed)
- experimental_context: 10 µM unless noted
- Procedure: Growth inhibition of the HOP-62 human Non-Small Cell Lung tumor cell line is measured as a screen for anti-cancer activity. Cells are grown in 96 well plates and exposed to the test compound for 48 hours. Compounds are tested at a single concentration, which is 10^-5 M for most compounds. The reported endpoint is percent growth (GI% or GIPRCNT), where numbers from 0 - 100% represent growth inhibition, and numbers from -100% - 0 represent cell death. […]
About 83,000 compounds went through this panel and 20% of them were active in at least one assay; those are over-represented in the sample as a whole.
Decision: growth >= 30% yields True, all other cases yield False.

compound | tested_on | label_class
CCCCN1CCN(c2ccc3nc(-c4ccc5nc(-c6ccc(OCC)c(OCC)c6)[nH]c5c4)[nH]c3c2)CC1 | HOP-62 NSCLC | False
COc1cc(C(=O)Nc2cc(O)c(CC=C(C)C)c(O)c2)cc2c1O[C@]1(C)CC[C@@H](O)C(C)(C)[C@H]1C2 | HOP-62 NSCLC | False
CCCCCCNc1cc(C)nc2ccc(OC)cc12 | HOP-62 NSCLC | True
COc1ccc(/C(C)=C(\c2ccc(Cl)cc2)c2ccc(OCCN3CCCCC3)cc2)cc1F | HOP-62 NSCLC | False
COc1ccc(-n2nnc(C(=O)NCCc3c[nH]c4ccc(F)cc34)c2C)cc1 | HOP-62 NSCLC | True
Clc1ccc2c(NCCCN3CCN(c4nc(-n5ccnc5)nc5ccccc45)CC3)ccnc2c1 | HOP-62 NSCLC | True
O=C1C=CC(=Nc2cc(Br)c(O)c(Br)c2)C=C1 | HOP-62 NSCLC | True
COc1cc(CNC(=O)/C=C/C=C/c2ccc3c(c2)OCO3)ccc1OCc1cn(-c2ccc(Cl)c(Cl)c2)nn1 | HOP-62 NSCLC | False
Cc1ccc(-n2nnc(C3=NCCc4c3[nH]c3ccc(Cl)cc43)c2C)cc1 | HOP-62 NSCLC | True
Cn1ccc(Cc2cnc(N)s2)n1 | HOP-62 NSCLC | True
C=C1c2c(C)nn(-c3ccc(S(N)(=O)=O)cc3)c2N(C)C23CC1C1(C)c4c(C)nn(-c5ccc(S(N)(=O)=O)cc5)c4N(C)C(C)(CC12)C3 (centres undefined) | HOP-62 NSCLC | True
O=C1Nc2ccccc2/C1=N/N=C/c1c[nH]c2ccccc12 | HOP-62 NSCLC | True
COc1ccc(C2CC(c3ccccc3)=NN2c2nc(C)c(C(C)=O)s2)cc1 (centres undefined) | HOP-62 NSCLC | True
C#C[C@]1(O)CC[C@H]2[C@@H]3CC=C4c5sc(N=C(N)N)nc5CC[C@]4(C)[C@H]3CC[C@@]21C | HOP-62 NSCLC | False
Cc1cc(=O)c2cc3nc(-c4cccnc4)oc3c(Br)c2o1 | HOP-62 NSCLC | True
COc1cccc(/C=C2\COc3ccc(O)cc3C2=O)c1OC | HOP-62 NSCLC | True
C=C(C)[C@@H]1CC[C@]2(C(=O)NCC(=O)O)CC[C@]3(C)[C@H](CC[C@@H]4[C@@]5(C)Cc6c([nH]c7ccccc67)C(C)(C)[C@@H]5CC[C@]43C)[C@@H]12 | HOP-62 NSCLC | True
COc1cc(/C=C/C(=O)c2cccc(-n3cc(-c4ccccc4)[nH]c3=O)c2)cc(OC)c1OC | HOP-62 NSCLC | False
C=CCOc1cccc(/C=C2\SC(=Nc3ccc(O)cc3)NC2=O)c1 | HOP-62 NSCLC | False

* * *

- System: EKVX NSCLC
- run_description: NCI-60 one-dose screen, 48 h (100 = growth as untreated, 0 = no growth, -100 = all killed)
- experimental_context: 10 µM unless noted
Compounds without any hit were thinned out: in the full panel of roughly 83,000, 20% have a hit.
Reported values of growth for individual entries
readout_name: growth (%)

molecule | readout_name | result_number
Oc1ccccc1-c1nc2ccccn2c1NCCN1CCOCC1 | growth | 102
C[C@H]1[C@H](C)CC[C@]2(C(=O)N3CCN(C)CC3)CC[C@]3(C)C(=CC[C@@H]4[C@@]5(C)C/C(=C/c6cccnc6)C(=O)C(C)(C)[C@@H]5CC[C@]43C)[C@H]12 | growth | -81.5
Cc1nc(Nc2ccc(NC(=S)Nc3ccccc3)cc2)c2ccccc2n1 | growth | 95.6
COc1ccc(OC)c(/C=C2\COc3ccc(O)cc3C2=O)c1 | growth | 103
CC1=NN(c2cccc(Cl)c2)C(=O)/C1=C\c1cn(CC(O)CN2CCCCC2)c2ccccc12 (centres undefined) | growth | 88
CN1C[C@@H](c2ccc(Cl)cc2)[C@]2(NC(=S)N(c3ccc(F)c(Cl)c3)C2=O)[C@@]12C(=O)NC1C=CC(Cl)=C[C@H]12 (some centres undefined) | growth | 50.7
COc1cc(/C=C/c2nc(Nc3ccc(S(=O)(=O)Nc4cc(C)on4)cc3)c3ccccc3n2)ccc1O | growth | 73.3
O=C(NCc1cccnc1)c1cc(-c2csc3c(=O)cc(N4CCOCC4)oc23)cc2c1OCCO2 | growth | 62.5
C/C(=N\NC(=O)Cn1c(-c2ccc(S(C)(=O)=O)cc2)nc2cc(Cl)ccc21)c1ccc(Cl)cc1 | growth | 76.6
